target-entity: T1, Histidine-tagged human 4-1BB protein (h4-1BB-His) (human, UniProt Q07011 24-186)
T1 construct: not shown: histidine tag
assay: SPR (Biacore T200), antibody on Protein A chip, h4-1BB-His injected;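 note: dissociation phase followed for 300 s, Kd derived as koff divided by kon from the kinetic fit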
Kindly state kon for each of the entries shown.
Please give the number followed by its unit.

Take a look at these entries with their results.
5F9-H2K3-IgG4 (antibody, V domains shown, humanized) VH: QVQLKESGPGLVKPSETLSLTCTVSGFSLTTYDISWVRQPPGKGLEWLGVIWTGGGTNYNSSFMSRVTISKDTSKNQVSLKLSSVTAADTAIYYCERVDYWGQGTTVTVSS VL: DVVMTQSPLSLPVTLGQPASISCRSSQSLVHSNGNTYLHWYQQRPGQSPKLLIYKVSNRFSGVPDRFSGSGSGTAFTFKISRVEAEDVGVYYCSQNTHVPWTFGGGTKLEIK | 212000 M⁻¹ s⁻¹
6A5-H1K3-IgG2 (antibody, V domains shown, humanized) VH: QVQLVQSGAEVKKPGSSVKLSCKASGYTFSSYWINWVRQAPGQGLEWMGNIYPSDSYTNYNQKFKDRVTLTVDKSTSTAYMELSSLRSEDTAVYYCTRTWEFYYDSVFDYWGQGTLVTVSS VL: DIQMTQSPSSLSASLGERVTITCKASQDINSYLSWFQQKPGKAPKTLIYRANRLVDGVPSRFSGSGSGQDFTLTISSLQPEDIATYYCLQYDELPPTFGGGTKVEIK | 2.22e+06 M⁻¹ s⁻¹

Field: next binder
### Prompt For the binder shown here, 1C4-H4K3-IgG4 (antibody, V domains shown, humanized) VH: QGQMVQSGAEVKKPGASVKLSCKTSGFTFSSSYINWLRQAPGQSLEWIAWIFAGTGGTYYNQKFTGRAQLTVDTSASTAYMELSSLRSEDTAIYYCARHSPRATLFDFWGQGTTLTVSS VL: EIVLTQSPATLSLSPGERATMSCRASSSVNHMHWYQQKPGFSPRAWIYATSNLASGIPARFSGSGSGTSFTLTISSLEPEDFATYYCQQWSSNPYTFGGGTKLEIK , give the reported kon.
### Response 32900 M⁻¹ s⁻¹
